// provenance: patent US20200339548A1

molecular target: Adenosine A2b receptor (Homo sapiens); construct: expressed in transfected cells; host or cells: CHO cell membranes; test: Adenosine receptor TR-FRET binding assay, A2b; details: Table 9, further testing; displacement of 30 nM CA200645, CHO cell membranes
pKi: −log10 of the molar value.
Rule: pKi of 7 or more gives TRUE; anything lower gives FALSE.

>>> categorylabel("Cc1cccnc1CNC(=O)c1c(N)nc(-c2ccco2)nc1OCCF")
"TRUE"
>>> categorylabel("Nc1nc(-c2cccc(F)c2)ncc1C(=O)Nc1ccccc1")
"FALSE"
>>> categorylabel("CC(O)CCNC(=O)c1c(N)nc(-c2cccc(C#N)c2)nc1OCCF (stereo not drawn)")
"FALSE"
>>> categorylabel("Nc1nc(-c2cccc(F)c2)ncc1C(=O)NCc1ccccc1O")
"TRUE"
>>> categorylabel("Nc1nc(-c2cccc(F)c2)ncc1C(=O)NCCc1ccccc1")
"FALSE"
>>> categorylabel("COc1cccc(CNC(=O)c2cnc(-c3ccco3)nc2N)c1OC")
"FALSE"
>>> categorylabel("COc1cc(CNC(=O)c2cnc(-c3cccc(F)c3)nc2N)cc(OC)c1")
"FALSE"
>>> categorylabel("Cc1cccnc1CNC(=O)c1c(N)nc(-c2ccco2)nc1OCC(C)C")
"FALSE"

###

molecular target: Adenosine A2a receptor (Homo sapiens, UniProt P29274); construct: expressed in transfected cells; host or cells: CHO cell membranes; assay: Adenosine receptor TR-FRET binding assay, A2a; conditions: Table 9, further testing; displacement of 100 nM CA200645, CHO cell membranes
Sequence (P29274 whole entry): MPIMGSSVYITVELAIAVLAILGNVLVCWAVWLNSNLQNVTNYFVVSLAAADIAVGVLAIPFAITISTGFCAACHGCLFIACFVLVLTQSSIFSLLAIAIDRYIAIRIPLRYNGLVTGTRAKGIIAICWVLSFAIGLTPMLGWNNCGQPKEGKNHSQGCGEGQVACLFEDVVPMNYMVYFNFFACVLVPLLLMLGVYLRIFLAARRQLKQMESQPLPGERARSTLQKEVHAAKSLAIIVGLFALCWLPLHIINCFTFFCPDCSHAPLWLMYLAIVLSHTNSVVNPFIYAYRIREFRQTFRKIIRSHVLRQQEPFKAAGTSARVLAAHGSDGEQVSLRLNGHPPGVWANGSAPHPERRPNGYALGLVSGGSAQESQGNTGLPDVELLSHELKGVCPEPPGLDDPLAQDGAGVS
pKi: −log10 of the molar value.
propertyLabel: pKi

>>> experimentalresult("Nc1nc(-c2ccco2)ncc1C(=O)NCc1ccc(C(F)(F)F)cc1")
6.53
>>> experimentalresult("Nc1nc(-c2cccc(F)c2)ncc1C(=O)NCc1ccccn1")
7.12
>>> experimentalresult("Nc1nc(-c2ccco2)ncc1C(=O)NCc1ncccc1F")
7.64
>>> experimentalresult("CN(Cc1ccccc1)C(=O)c1cnc(-c2ccco2)nc1N")
6.06
>>> experimentalresult("Nc1cccnc1CNC(=O)c1cnc(-c2ccco2)nc1N")
7.96
>>> experimentalresult("Cc1cccnc1CNC(=O)c1c(N)nc(-c2cccc(C#N)c2)nc1OCCF")
10.00
>>> experimentalresult("CCCCNC(=O)c1c(N)nc(-c2cccc(C#N)c2)nc1OCCF")
9.05
>>> experimentalresult("Nc1nc(-c2cccc(F)c2)ncc1C(=O)NCc1cccc2cccnc12")
8.48
>>> experimentalresult("COc1cccc(F)c1CNC(=O)c1cnc(-c2cccc(F)c2)nc1N")
7.70
>>> experimentalresult("Cc1cccnc1CNC(=O)c1c(N)nc(-c2ccco2)nc1-n1cccn1")
6.98
>>> experimentalresult("CC(C)NC(=O)c1c(N)nc(-c2cccc(C#N)c2)nc1OCCF")
8.48
>>> experimentalresult("CCCOc1nc(-c2ccco2)nc(N)c1C(=O)NCc1ncccc1C")
9.28
>>> experimentalresult("Cc1cc(C)cc(CNC(=O)c2cnc(-c3ccco3)nc2N)c1")
7.68
>>> experimentalresult("Cc1cccnc1CNC(=O)c1c(N)nc(-c2ccco2)nc1OCCN")
9.21
>>> experimentalresult("Nc1nc(-c2ccco2)ncc1C(=O)NCc1nccc(C(F)(F)F)n1")
6.63
>>> experimentalresult("Nc1nc(-c2ccco2)ncc1C(=O)NCc1cccc2cccnc12")
9.08
>>> experimentalresult("Nc1nc(-c2ccco2)ncc1C(=O)NCc1ncccn1")
6.98
>>> experimentalresult("Nc1nc(-c2ccco2)ncc1C(=O)NCc1ncccc1C(F)(F)F")
8.57
>>> experimentalresult("Cn1ccnc1CNC(=O)c1cnc(-c2ccco2)nc1N")
7.80
>>> experimentalresult("Nc1nc(-c2cccc(F)c2)ncc1C(=O)NCCc1ccccc1")
6.85
>>> experimentalresult("Nc1nc(-c2ccco2)ncc1C(=O)NCc1cc(F)cc(F)c1")
7.62
>>> experimentalresult("Nc1nc(-c2ccco2)ncc1C(=O)NCc1ncco1")
6.91
>>> experimentalresult("Nc1nc(-c2cccc(F)c2)ncc1C(=O)Nc1ccccc1")
6.95
>>> experimentalresult("Nc1nc(-c2ccco2)ncc1C(=O)N[C@H]1CCc2ccc(F)cc21")
7.28
>>> experimentalresult("Nc1nc(-c2ccco2)ncc1C(=O)NCc1ncccc1Cl")
8.82
>>> experimentalresult("Cc1cccnc1CNC(=O)c1cnc(-c2ccco2)nc1N")
8.48
>>> experimentalresult("CCn1ccnc1CNC(=O)c1cnc(-c2ccco2)nc1N")
7.62
>>> experimentalresult("NC(=O)c1nnc(-c2cccc(F)c2)nc1N")
6.25
>>> experimentalresult("Nc1nc(-c2ccco2)ncc1C(=O)NCc1ccc(F)cc1")
7.48
>>> experimentalresult("Cc1cccnc1CNC(=O)c1cnc(-c2ncco2)nc1N")
7.47
>>> experimentalresult("Nc1nc(-c2ccco2)ncc1C(=O)NCc1ccccc1Cl")
8.29
>>> experimentalresult("Nc1nc(-c2cccc(F)c2)ncc1C(=O)NCc1ccccc1F")
7.05
>>> experimentalresult("Nc1nc(-c2ccco2)ncc1C(=O)NCc1c(Cl)cccc1Cl")
9.19
>>> experimentalresult("Nc1nc(-c2ccco2)ncc1C(=O)NCc1cccc2c1OCO2")
7.96
>>> experimentalresult("COc1ccccc1CNC(=O)c1cnc(-c2cccc(F)c2)nc1N")
7.57
>>> experimentalresult("Nc1nc(-c2ccco2)ncc1C(=O)NC1CCCc2cccnc21 (stereo not drawn)")
6.80
>>> experimentalresult("Nc1nc(-c2cccc(F)c2)ncc1C(=O)NCc1ccccc1Cl")
6.86
>>> experimentalresult("CC(C)CNC(=O)c1c(N)nc(-c2cccc(C#N)c2)nc1OCCF")
8.70
>>> experimentalresult("CC(C)n1ncnc1CNC(=O)c1cnc(-c2cccc(F)c2)nc1N")
7.47

###

// values below are reported Ki
biological target: Adenosine A3 receptor (Homo sapiens, UniProt P0DMS8); construct: expressed in transfected cells; host or cells: CHO cell membranes; assay: Adenosine receptor TR-FRET binding assay, A3; details: Table 9, further testing; displacement of 100 nM CA200645, CHO cell membranes; read-out: A3 Ki
Sequence (P0DMS8 whole entry): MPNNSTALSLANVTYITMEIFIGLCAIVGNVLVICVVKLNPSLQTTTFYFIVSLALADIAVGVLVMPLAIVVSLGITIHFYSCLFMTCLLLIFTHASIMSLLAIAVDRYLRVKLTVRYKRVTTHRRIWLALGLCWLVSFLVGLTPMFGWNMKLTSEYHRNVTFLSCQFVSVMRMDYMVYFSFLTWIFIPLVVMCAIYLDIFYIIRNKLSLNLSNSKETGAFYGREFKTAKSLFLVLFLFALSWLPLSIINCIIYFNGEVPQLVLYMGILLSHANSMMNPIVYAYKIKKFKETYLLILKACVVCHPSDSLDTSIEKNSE
propertyLabel: Ki (nM)

>>> experimentalresult("Cc1cccnc1CNC(=O)c1c(N)nc(-c2ccco2)nc1-n1cccn1")
675
>>> experimentalresult("COc1nc(-c2ccco2)nc(N)c1C(=O)NCc1c(Cl)cccc1Cl")
194
>>> experimentalresult("Nc1nc(-c2cccc(F)c2)ncc1C(=O)NCc1cccc(F)c1")
504
>>> experimentalresult("Cc1cccnc1CNC(=O)c1cnc(-c2cccc(F)c2)nc1N")
54
>>> experimentalresult("Nc1nc(-c2ccco2)ncc1C(=O)NCc1cccc(Cl)c1")
1160
>>> experimentalresult("Nc1nc(-c2cccc(F)c2)ncc1C(=O)NCc1ccccc1Cl")
300
>>> experimentalresult("Cc1cccnc1CNC(=O)c1nnc(-c2cccc(C#N)c2)nc1N")
442
>>> experimentalresult("Nc1nc(-c2ccco2)ncc1C(=O)NCc1ccccc1C(F)F")
2800
>>> experimentalresult("Nc1nc(-c2ccco2)ncc1C(=O)NCc1cc(F)cc(C(F)(F)F)c1")
1090

###

pKi: −log10 of the molar value. Where a name gives a salt, the structure may show the parent alone.
Parameter 'readout' = pKi; parameter 'system' = Adenosine A2b receptor (Homo sapiens, UniProt P29275).
Sequence (P29275 whole entry): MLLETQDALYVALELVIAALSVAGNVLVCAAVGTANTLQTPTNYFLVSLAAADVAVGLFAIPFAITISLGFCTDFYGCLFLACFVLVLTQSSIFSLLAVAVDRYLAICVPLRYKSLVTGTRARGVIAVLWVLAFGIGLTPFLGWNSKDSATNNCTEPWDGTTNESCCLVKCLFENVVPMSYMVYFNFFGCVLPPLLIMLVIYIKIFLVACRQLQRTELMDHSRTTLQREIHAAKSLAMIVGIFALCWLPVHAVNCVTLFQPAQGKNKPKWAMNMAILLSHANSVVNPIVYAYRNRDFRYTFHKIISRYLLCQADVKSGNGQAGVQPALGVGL
propertyLabel: pKi

>>> experimentalresult("Cc1cccnc1CNC(=O)c1c(N)nc(-c2ccco2)nc1OCCCN [Example 23.5, dihydrochloride]")
5.51
>>> experimentalresult("Cc1cccnc1CNC(=O)c1cnc(-c2nccs2)nc1N")
5.14
>>> experimentalresult("COc1cccc(CNC(=O)c2cnc(-c3cccc(F)c3)nc2N)c1OC")
6.42
>>> experimentalresult("CC(C)n1ncnc1CNC(=O)c1cnc(-c2cccc(F)c2)nc1N")
5.89
>>> experimentalresult("Nc1nc(-c2ccco2)ncc1C(=O)NCc1c(Cl)cccc1Cl")
6.53
>>> experimentalresult("Cc1cccnc1CNC(=O)c1cnc(-c2ccco2)nc1N")
6.36
>>> experimentalresult("Nc1cccnc1CNC(=O)c1cnc(-c2ccco2)nc1N")
6.19
>>> experimentalresult("COCC(C)Oc1nc(-c2ccco2)nc(N)c1C(=O)NCc1ncccc1C (stereo not shown)")
6.27
>>> experimentalresult("CC(=O)NCCOc1nc(-c2ccco2)nc(N)c1C(=O)NCc1ncccc1C")
6.29
>>> experimentalresult("Nc1nc(-c2ccco2)ncc1C(=O)NCc1ncccc1Cl")
5.94
>>> experimentalresult("CC(C)n1ccnc1CNC(=O)c1cnc(-c2ccco2)nc1N")
5.18
>>> experimentalresult("Cc1cccnc1CNC(=O)c1c(N)nc(-c2ncco2)nc1OCCF")
7.11
>>> experimentalresult("Cc1ccc(CNC(=O)c2cnc(-c3cccc(F)c3)nc2N)cc1")
5.07
>>> experimentalresult("Nc1nc(-c2ccco2)ncc1C(=O)NC1Cc2ccccc2C1")
5.79
>>> experimentalresult("COc1ccccc1CNC(=O)c1cnc(-c2ccco2)nc1N")
5.92
>>> experimentalresult("Nc1nc(-c2cccc(F)c2)ncc1C(=O)NCc1cccc(Cl)c1")
5.83
>>> experimentalresult("Nc1nc(-c2cccc(F)c2)ncc1C(=O)NCc1ccccc1")
5.92
>>> experimentalresult("Nc1nc(-c2cccc(F)c2)ncc1C(=O)NCc1ncccc1C(F)(F)F")
6.21
>>> experimentalresult("Cc1cccnc1CNC(=O)c1c(N)nc(-c2ccco2)nc1Cl")
5.41
